Biological target: HLA-A*6802 (human)
Conditions: remark: other sources report otherwise
pIC50: −log10 of the molar value.
Assay readout: pIC50

Binder	Endpoint result
SLQCVSLHLL [peptide 1419.66 (HuK2.170, 10-mer)]	5.30
SLHLLSNDMCV [peptide 1418.66 (HuK2.175.V11)]	5.67

1: LMLLRLSEPA [peptide 63.0014 (HuK2.121)]
2: SLQCVSLHL [peptide 60.0191 (HuK2.170, 9-mer)]
3: HLLSNDMCARV [peptide 1418.67 (HuK2.177.V11)]
## Task # rank by pIC50, ascending (min first) Please reply with the labels ordered as requested. Many thanks.
## Result 1, 2, 3
